Overview of reported IC50 across a group of compounds:
target-system: Acetylcholinesterase (Homo sapiens, UniProt P22303)
Sequence (P22303 whole entry): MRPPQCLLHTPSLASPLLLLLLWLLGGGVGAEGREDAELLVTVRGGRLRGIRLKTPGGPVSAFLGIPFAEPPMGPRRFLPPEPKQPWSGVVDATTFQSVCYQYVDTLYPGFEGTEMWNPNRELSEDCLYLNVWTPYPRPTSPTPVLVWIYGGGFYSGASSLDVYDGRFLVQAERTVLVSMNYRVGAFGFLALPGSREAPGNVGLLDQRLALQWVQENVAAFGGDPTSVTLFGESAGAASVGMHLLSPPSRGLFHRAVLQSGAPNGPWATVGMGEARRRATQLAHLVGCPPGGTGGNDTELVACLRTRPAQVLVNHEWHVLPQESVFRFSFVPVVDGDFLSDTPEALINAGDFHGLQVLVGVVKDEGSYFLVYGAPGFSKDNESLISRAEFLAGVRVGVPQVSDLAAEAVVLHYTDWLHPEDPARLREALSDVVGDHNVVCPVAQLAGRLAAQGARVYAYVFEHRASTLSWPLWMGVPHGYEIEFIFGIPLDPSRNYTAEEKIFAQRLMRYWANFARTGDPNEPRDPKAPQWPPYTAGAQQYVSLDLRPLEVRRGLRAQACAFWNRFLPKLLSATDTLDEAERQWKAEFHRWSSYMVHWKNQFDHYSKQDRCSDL
protocol-details: Inhibition of recombinant human AChE expressed in HEK293F cells using acetylthiocholine iodide as substrate measured over 60 secs by Ellman's method
Give the value in µM but do not write µM after it.

// below: answered compounds
>  <smiles-repr>
COc1ccccc1NC(=S)NCCN(C)C

>  <readout-value>
120

$$$$
>  <smiles-repr>
COc1ccc(NC(=S)NCCN2CCOCC2)cc1Cl

>  <readout-value>
14

$$$$
>  <smiles-repr>
COc1ccc(NC(S)=NCCN2CCC(C)CC2)cc1Cl

>  <readout-value>
12

$$$$
>  <smiles-repr>
COc1ccccc1NC(=S)NCCN1CCCCC1

>  <readout-value>
32

$$$$
>  <smiles-repr>
COc1ccc(NC(=S)NCCN2CCCCC2)cc1

>  <readout-value>
120

$$$$

# IC50 of NS(=O)(=O)c1ccc(NC(=S)NCCN2CCCCC2)cc1 = 90

# IC50 of CN(C)CCN=C(S)Nc1cccc(Cl)c1 = 140
